targetOrTestSystem: NSD2 [1-1365] (Homo sapiens (Human), UniProt O96028)
Sequence (O96028 whole entry): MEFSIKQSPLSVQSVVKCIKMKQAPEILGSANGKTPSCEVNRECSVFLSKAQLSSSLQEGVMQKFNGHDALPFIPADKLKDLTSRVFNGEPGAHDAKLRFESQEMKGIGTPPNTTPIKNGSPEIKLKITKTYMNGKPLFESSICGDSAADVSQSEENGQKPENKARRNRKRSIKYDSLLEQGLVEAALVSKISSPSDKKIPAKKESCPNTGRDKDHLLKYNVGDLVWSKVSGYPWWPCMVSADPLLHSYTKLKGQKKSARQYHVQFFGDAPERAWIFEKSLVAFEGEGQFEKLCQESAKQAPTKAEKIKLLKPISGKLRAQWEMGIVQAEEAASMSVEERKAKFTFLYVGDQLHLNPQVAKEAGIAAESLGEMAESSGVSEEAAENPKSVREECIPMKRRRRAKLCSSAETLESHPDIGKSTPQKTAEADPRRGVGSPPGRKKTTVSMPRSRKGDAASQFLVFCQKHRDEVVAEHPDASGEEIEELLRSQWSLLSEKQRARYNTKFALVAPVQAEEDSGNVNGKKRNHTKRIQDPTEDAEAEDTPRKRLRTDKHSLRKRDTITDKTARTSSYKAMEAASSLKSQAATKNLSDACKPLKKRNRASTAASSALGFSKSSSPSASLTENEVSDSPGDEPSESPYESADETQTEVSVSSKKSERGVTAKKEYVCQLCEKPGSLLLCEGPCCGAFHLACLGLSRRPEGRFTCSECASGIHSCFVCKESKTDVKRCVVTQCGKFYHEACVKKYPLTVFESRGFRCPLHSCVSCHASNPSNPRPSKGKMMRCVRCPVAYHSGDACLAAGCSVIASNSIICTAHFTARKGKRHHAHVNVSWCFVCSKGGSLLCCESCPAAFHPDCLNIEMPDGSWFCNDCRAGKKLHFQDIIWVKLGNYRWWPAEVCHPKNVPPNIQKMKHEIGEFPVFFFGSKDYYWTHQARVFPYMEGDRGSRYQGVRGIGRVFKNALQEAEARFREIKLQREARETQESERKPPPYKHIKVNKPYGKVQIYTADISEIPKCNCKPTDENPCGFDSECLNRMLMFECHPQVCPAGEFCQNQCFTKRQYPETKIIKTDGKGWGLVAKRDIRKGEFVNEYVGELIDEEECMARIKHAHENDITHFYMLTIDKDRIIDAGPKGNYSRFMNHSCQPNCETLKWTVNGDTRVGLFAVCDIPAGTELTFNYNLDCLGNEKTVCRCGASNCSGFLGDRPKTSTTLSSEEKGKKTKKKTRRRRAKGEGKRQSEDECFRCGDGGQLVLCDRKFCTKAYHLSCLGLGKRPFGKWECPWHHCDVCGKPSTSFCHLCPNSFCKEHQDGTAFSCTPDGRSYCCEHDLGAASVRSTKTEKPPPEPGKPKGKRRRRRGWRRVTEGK
experimentSummary: LC-MS/MS-based NSD2 enzymatic assay (SAH production)
Format: biochemical
runParameters: NSD2 biochemical activity, class symbols; read-out: NSD2 IC50
pIC50: −log10 of the molar value.
Would you kindly list pIC50 for each of these compounds?

Assign pIC50 to the following record: Nc1ncnc2c1ncn2Cc1cc(-c2cc(F)c(F)cc2F)ncc1N1CCC[C@](N)([C@H](O)C(F)F)C1
8.00 to 9.00

# return recorded pIC50 for input N#Cc1ccc(-c2cc(Cn3cnc4c(N)ncnc43)c(N3CC[C@@H](F)[C@@H](N)C3)cn2)cc1F
6.00 to 8.00

Give the reported pIC50 for this compound. Nc1ncnc2c1ncn2Cc1cc(-c2ccc(Cl)c(F)c2)ncc1N1CCC[C@](N)([C@@H](O)C(F)F)C1
8.00 to 9.00

Identify measured pIC50 associated with COC[C@@H]1[C@H](N)CCCN1c1cnc(-c2ccc(C#N)c(F)c2)cc1Cn1cnc2c(N)ncnc21
6.00 to 8.00

Provide only the value of recorded pIC50 for Nc1ncnc2c1ncn2Cc1cc(-c2ccc(F)cc2)ncc1N1CCC[C@](N)(COC2CCC2)C1
6.00 to 8.00

For the compound COc1ccc(-c2cc(Cn3cnc4c(N)ncnc43)c(N3CCC[C@](N)([C@H](C)O)C3)cn2)cc1F , give its reported pIC50.
8.00 to 9.00

Respond only with pIC50 recorded for COCCC1(N)CCCN(c2cnc(-c3ccc(F)c(F)c3)cc2Cn2cnc3c(N)ncnc32)C1 (stereo not shown)
6.00 to 8.00

---

Test system: cellular H3K36me2 level in multiple myeloma cell line KMS11 (t(4;14)+)
experimentSummary: H3K36me2 cellular ELISA assay in KMS11-Par line
Format: cell-based
runParameters: Homo sapiens, KMS-11; KMS11-Par line, ELISA, 72 hours; read-out: H3K36me2 ELISA in KMS11-Par
pIC50: −log10 of the molar value.
Classification field. Basis: pIC50. Definitions: group 1: < 5; group 2: ≥ 5 and < 6; group 3: ≥ 6

Into which category would you place COc1ccc(-c2cc(Cn3cnc4c(N)ncnc43)c(N3CCC[C@](N)([C@H](O)C(F)F)C3)cn2)c(Cl)c1 [Example 168] ?
group 2

Sort into band: Nc1ncnc2c1ncn2Cc1cc(-c2ccc(F)c(F)c2)ncc1N1CCC[C@](N)(c2cccc(F)n2)C1 [Example 201]
group 3

The entry to classify is Nc1ncnc2c1ncn2Cc1cc(-c2ccc(F)c(F)c2)ncc1N1CCC[C@](N)(c2ccncc2F)C1 [Example 248] ; which class holds it?
group 2

Bin this entry: Nc1ncnc2c1ncn2Cc1cc(-c2ccc(F)cc2)ncc1N1CCCC(N)(c2ccc(F)c(CF)n2)C1 (stereo not drawn) [Example 193]
group 2

Band for the recorded pIC50 of Nc1ncnc2c1ncn2Cc1cc(-c2ccc(F)c(F)c2)ncc1N1CCC[C@](N)(c2ccnc(Cl)c2)C1 [Example 246] ?
group 1

Using the reported pIC50, which band applies to Nc1ncnc2c1ncn2Cc1cc(-c2cc(F)c(F)cc2F)ncc1N1CCC[C@](N)(c2cccc(Cl)n2)C1 [Example 237] ?
group 2

Kindly identify the class of Nc1nccc2c1ncn2Cc1cc(-c2ccc(F)cc2)ncc1N1CCCC(N)(c2ccccn2)C1 (stereo not drawn) [Example 266] .
group 3

Lab note: which band did Cn1cc(C2(N)CCCN(c3cnc(-c4ccc(F)c(F)c4)cc3Cn3cnc4c(N)nccc43)C2)cn1 (stereo not drawn) [Example 270] land in?
group 1

# bin lookup: classify COc1ccc(-c2cc(Cn3cnc4c(N)ncnc43)c(N3CCC[C@](N)(C(F)F)C3)cn2)cc1F [Example 305] by its pIC50
group 2

# bin label for COCC1CC(N)CN(c2cnc(-c3ccc(F)c(F)c3)cc2Cn2cnc3c(N)ncnc32)C1 (stereo not drawn) [Example 308]
group 1

---

targetOrTestSystem: NSD2 [1-1365] (Homo sapiens (Human), UniProt O96028)
experimentSummary: LC-MS/MS-based NSD2 enzymatic assay (SAH production)
Format: biochemical
runParameters: read-out: NSD2 IC50
parameterMeasured: IC50

Hello, please tell me recorded IC50 for this one: COc1cc(F)ccc1-c1cc(Cn2cnc3c(N)ncnc32)c(N2CCC[C@](N)([C@H](O)C(F)F)C2)cn1
10 to 1000 nM

Please look at this molecule and report its IC50: COc1cc(F)c(-c2cc(Cn3cnc4c(N)ncnc43)c(N3CCC[C@](N)(c4cccc(Cl)n4)C3)cn2)c(F)c1
10 to 1000 nM

Annotate the molecule NC(=O)c1cccc(C2(N)CCCN(c3cnc(-c4ccc(F)c(F)c4)cc3Cn3cnc4c(N)ncnc43)C2)n1 (stereo not drawn) with its measured IC50.
10 to 1000 nM

Using known records, supply IC50 for Nc1nccc2c1ncn2Cc1cc(N2CCC2)ncc1N1CCCC(N)(c2cccc(Cl)n2)C1 (stereo not drawn)
> 1000 nM

Look up IC50 of Nc1ncnc2c1ncn2Cc1cc(-c2ccc(F)c(F)c2)ncc1N1CCC[C@@H](N)[C@H]1c1ccccc1 and report it.
> 1000 nM

Using the record for Cc1cccc([C@@]2(N)CCCN(c3cnc(-c4ccc(F)c(F)c4)cc3Cn3cnc4c(N)ncnc43)C2)[n+]1[O-] , state its measured IC50.
10 to 1000 nM

For the molecule Nc1nccc2c1ncn2Cc1cc(-c2ccc(F)c(F)c2)ncc1N1CCC[C@](N)(c2cccc(C(F)F)n2)C1 , give its measured IC50 value.
10 to 1000 nM

Supply IC50 value. Item: Nc1ncnc2c1ncn2Cc1cc(-c2ccc(F)c(F)c2)ncc1N1C[C@H](N)CCC1=O
> 1000 nM

Identify measured IC50 corresponding to N#Cc1cccc(C2(N)CCCN(c3cnc(-c4ccc(F)c(F)c4)cc3Cn3cnc4c(N)ncnc43)C2)n1 (stereo not drawn)
10 to 1000 nM

Consider the molecule Nc1ncnc2c1ncn2Cc1cc(-c2ccc(F)c(F)c2)ncc1N1CCCC(N)C1=O (stereo not drawn) and give its recorded IC50.
> 1000 nM

Give reported IC50 value for CCc1nccc([C@@]2(N)CCCN(c3cnc(-c4ccc(F)c(F)c4)cc3Cn3cnc4c(N)ncnc43)C2)n1
10 to 1000 nM

Let me know recorded IC50 for Nc1nccc2c1ncn2Cc1cc(-c2ccc(F)c(F)c2)ncc1N1CCCC(N)(c2cccc(F)n2)C1 (stereo not drawn) , thanks.
10 to 1000 nM

Report IC50 for CCn1ccc(C2(N)CCCN(c3cnc(-c4ccc(F)cc4)cc3Cn3cnc4c(N)nccc43)C2)n1 (stereo not drawn)
10 to 1000 nM

Look up and state reported IC50 for Nc1ncnc2c1ncn2Cc1cc(-c2ccc(F)c(F)c2)ncc1N1C[C@H](N)C[C@H](F)C1
10 to 1000 nM

For the molecule C[C@H](F)c1cccc([C@@]2(N)CCCN(c3cnc(-c4ccc(F)cc4)cc3Cn3cnc4c(N)ncnc43)C2)n1 , give its reported IC50.
10 to 1000 nM

---

targetOrTestSystem: NSD2 [1-1365] (Homo sapiens (Human), UniProt O96028)
experimentSummary: LC-MS/MS-based NSD2 enzymatic assay (SAH production)
Assay type: biochemical
runParameters: read-out: NSD2 IC50
pIC50: −log10 of the molar value.
Field: pIC50. Provide a value for each of the compounds that follow.

Please indicate pIC50 recorded for Cc1cccc([C@@]2(N)CCCN(c3cnc(-c4ccc(F)cc4)cc3Cn3cnc4c(N)nccc43)C2)n1
8.00 to 9.00

Annotate the compound Cc1cccc(C2(N)CCCN(c3cnc(-c4ccc(F)c(F)c4)cc3Cn3cnc4c(N)ncnc43)C2)n1 (stereo not shown) with its measured pIC50.
8.00 to 9.00

For the compound Nc1ncnc2c1ncn2Cc1cc(-c2ccc(F)c(F)c2)ncc1N1CCC[C@](N)(c2ncccc2F)C1 , report pIC50.
8.00 to 9.00

Item COc1ccc(-c2cc(Cn3cnc4c(N)ncnc43)c(N3CCC[C@](N)(C(O)C(F)F)C3)cn2)c(C(F)(F)F)c1 (stereo in doubt) : provide pIC50
6.00 to 8.00

For Nc1ncnc2c1ncn2Cc1cc(-c2ccc(F)c(Cl)n2)ncc1N1CCC[C@](N)([C@@H](O)C(F)F)C1 , write its pIC50.
6.00 to 8.00

Return reported pIC50. Input compound: Nc1ncnc2c1ncn2Cc1cc(-c2cnc(F)c(Cl)c2)ncc1N1CCC[C@](N)(c2cccc(Cl)n2)C1
6.00 to 8.00

Please give measured pIC50 of the following entry: Nc1ncnc2c1ncn2Cc1cc(-c2ccc(F)c(F)c2)ncc1N1CCCC(N)(c2ccncn2)C1 (stereo not shown)
6.00 to 8.00

---

targetOrTestSystem: NSD2 [1-1365] (Homo sapiens (Human), UniProt O96028)
experimentSummary: LC-MS/MS-based NSD2 enzymatic assay (SAH production)
Type: biochemical
runParameters: read-out: NSD2 IC50
pIC50: −log10 of the molar value.
Answer each item with its documented pIC50.

Kindly indicate its recorded pIC50. Item: Cc1ccc(-c2cc(Cn3cnc4c(N)ncnc43)c(N3CCCC(N)(c4cccc(Cl)n4)C3)cn2)cn1 (stereo not shown) [Example 229]
6.00 to 8.00

Given the compound Nc1ncnc2c1ncn2Cc1cc(-c2ccc(F)c(F)c2)ncc1N1CCC[C@](N)([C@@H]2COCCO2)C1 [Example 289] , write its reported pIC50.
8.00 to 9.00

Read off the recorded pIC50 for Nc1ncnc2c1ncn2Cc1cc(-c2ccc(F)c(F)c2)ncc1N1CCC[C@](N)(c2ccncc2)C1 [Example 245]
6.00 to 8.00

Using known records, supply pIC50 for Nc1ncnc2c1ncn2Cc1cc(-c2ccc(F)c(F)c2)ncc1N1CCC[C@@H](N)[C@H]1CO [Example 312]
6.00 to 8.00

Specify measured pIC50 for Nc1ncnc2c1ncn2Cc1cc(-c2ccc(F)c(F)c2)ncc1N1CCC[C@](N)(c2cccc(Cl)n2)C1 [Example 200] .
8.00 to 9.00

Please supply the value of reported pIC50 for the item CCc1cncc([C@@]2(N)CCCN(c3cnc(-c4ccc(F)cc4)cc3Cn3cnc4c(N)ncnc43)C2)n1 [Example 250]
6.00 to 8.00

Query pIC50 for Nc1nccc2c1ncn2Cc1cc(-c2ccc(F)cc2)ncc1N1CCCC(N)(c2ccccn2)C1 (stereo not shown) [Example 266]
8.00 to 9.00

Source of measurements: patent US11420970B1
